- Experiment notes: Single rising oral dose (10-150 mg IR) safety, tolerance and pharmacokinetics in healthy male volunteers
- Type: in vivo, human
- Setup conditions: male, human, plasma, oral, 100 mg, Geometric Mean; read-out: AUC0-t
Observable: AUC(0-t)

molecule="Clc1ccc([C@]23CNC[C@H]2C3)cc1Cl [amitifadine]" observable=AUC(0-t) result="4780 ng·h/mL"

----------
- Experiment notes: 2-week dog toxicity and toxicokinetic study
- Format: in vivo
- Setup conditions: female, beagle, in vivo, po, 10 mg/kg/day, females, 10 mg/kg/day, Day 0, read-out: AUC0-24
Observable: AUC(0-t) (ng·h/mL)

molecular_string=Clc1ccc([C@]23CNC[C@H]2C3)cc1Cl observable=AUC(0-t) result=15000
